Source of measurements: PubChem BioAssay AID228

Test system: BDF1 mice, Friend leukemia sc, tumor weight T/C
Experiment notes: NCI In Vivo Anticancer Drug Screen. Data for tumor model Friend Virus Leukemia (Solid) (subcutaneous) in B6D2F1 (BDF1) mice
Assay context: endpoint: mean tumor weight; dose: 200.0 mg/kg/injection; schedule: Q01DX011 (ip); vehicle: carboxymethylcellulose (CMC); higher = larger tumour
Results filed as inconclusive are left out. Starred links: 1 amine or outer side, 2 acyl side, 3 side chain; linkers in the order of their positions; H or OH if unused. Positions of bridges follow the written chain, without caps; N, C: chain ends. Non-standard residues stand in square brackets, D forms with d. Residues, ends and D or L forms follow the SMILES beside them. *: point of attachment. X1 = CC(C)C(C)C(C(=O)[*:2])N(C)[*:1]; Picolinoyl(3-OH) = O=C(c1ncccc1O)*; NMePhg = CN[CH](C(=O)O)c1ccccc1; Hyp = O=C(O)[CH]1C[CH](O)CN1; Sar = CNCC(=O)O

{"columns": ["Compound", "T/C"],
 "data": [
  ["Nc1nc(N)c(N=Nc2ccccc2)c(=O)[nH]1", "60 % of control"],
  ["CCCCCCCCCCCCCS", "101 % of control"],
  ["CCCn1cnc2c(SCc3ccccc3Cl)nc(N)nc21", "12 % of control"],
  ["Clc1ncnc2nc[nH]c12", "18 % of control"],
  ["CCCCCCCCCC(C)(O)C#CC(C)(O)CCCCCCCCC (centres undefined)", "34 % of control"],
  ["C[C@H](N)C(=O)N[C@@H]1[C@H]2C(=C(O)C[C@@H](O)[C@@H]2O)C(=O)O[C@@H]1C", "48 % of control"],
  ["CNC=O", "39 % of control"],
  ["CC(C)CC1NC(=O)C(NC(=O)c2ncccc2O)C(C)OC(=O)C(c2ccccc2)N(C)C(=O)C(C)NC(=O)C(C(C)C(C)C)N(C)C(=O)CN(C)C(=O)C2CC(O)CN2C1=O (centres undefined) ({Picolinoyl(3-OH)}-TL[Hyp][Sar][X1]A[NMePhg]; ester 1-C; configuration not given here)", "39 % of control"],
  ["COc1ccccc1NC(=O)CSC(N)=O", "104 % of control"]
]}
